Test system: L. infantum promastigote forms
Test Protocol: Promastigote forms assay
Assay type: cell-based, Leishmania infantum
Experimental Context: extracellular and intracellular forms, reference Glucantime
Measure: times SI exceeds the reference drug SI (all forms)

CC(=O)O[C@H]1[C@H](Oc2c(-c3ccc(O)c(O)c3)oc3cc(O[C@@H]4O[C@@H](C)[C@H](O)[C@@H](O)[C@H]4O)cc(O)c3c2=O)O[C@H](CO)[C@@H](O)[C@@H]1O [Compound 8, 2′′-acetylpetiolaroside]    more than 50 times
C[C@H]1O[C@H](Oc2cc(O)c3c(=O)c(O[C@@H]4O[C@H](CO)[C@@H](O)[C@H](O)[C@H]4O)c(-c4ccc(O)c(O)c4)oc3c2)[C@@H](O)[C@@H](O)[C@@H]1O [Compound 7, petiolaroside]    more than 50 times
CC(=O)OC[C@H]1O[C@@H](Oc2c(-c3ccc(OC(C)=O)c(OC(C)=O)c3)oc3cc(O[C@@H]4O[C@@H](C)[C@H](OC(C)=O)[C@@H](OC(C)=O)[C@H]4OC(C)=O)cc(OC(C)=O)c3c2=O)[C@H](OC(C)=O)[C@@H](OC(C)=O)[C@@H]1OC(C)=O [Compound 9, petiolaroside decacetate]    < 50 times
CC(=O)OC[C@H]1O[C@@H](Oc2cc(OC(C)=O)c3c(=O)c(O[C@@H]4O[C@H](COC(C)=O)[C@@H](OC(C)=O)[C@H](OC(C)=O)[C@H]4OC(C)=O)c(-c4ccc(OC(C)=O)cc4)oc3c2)[C@H](OC(C)=O)[C@@H](OC(C)=O)[C@@H]1OC(C)=O    more than 50 times
CC(=O)OC[C@H]1O[C@@H](Oc2c(-c3ccc(OC(C)=O)cc3)oc3cc(OC(C)=O)cc(OC(C)=O)c3c2=O)[C@H](OC(C)=O)[C@@H](OC(C)=O)[C@@H]1OC(C)=O    < 50 times
O=c1c(O[C@@H]2O[C@H](CO)[C@@H](O)[C@H](O)[C@H]2O)c(-c2ccc(O)cc2)oc2cc(O)cc(O)c12    < 50 times
CC(=O)O[C@H]1[C@H](Oc2c(-c3ccc(O)cc3)oc3cc(O[C@@H]4O[C@H](CO)[C@@H](O)[C@H](O)[C@H]4O)cc(O)c3c2=O)O[C@H](CO)[C@@H](O)[C@@H]1O [Compound 5, 2′′-acetylpaeonoside]    more than 50 times

Query string: Would you mind telling me what times SI exceeds the reference drug SI (all forms) value was observed for CC(=O)O[C@H]1[C@H](Oc2c(-c3ccc(O)cc3)oc3cc(O)cc(O)c3c2=O)O[C@H](CO)[C@@H](O)[C@@H]1O ?
Result string: < 50 times
